Origin of the recorded values: paper PMC12951562

remaining activity at 10 µM reference
Target: CRKL (Homo sapiens)
Construct: the DNA-tagged SH2 domain concentrations used in this study were <0.1 nM; made in house; host or cells: HEK293 (transient transfection; unpurified extract)
Sequence (P46109 14-102 limits assumed): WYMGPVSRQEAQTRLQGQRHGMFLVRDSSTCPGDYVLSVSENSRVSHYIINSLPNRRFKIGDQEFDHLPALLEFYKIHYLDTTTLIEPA
Test: biochemical
Type: binding
Conditions: primary screen, 10 μM; read-out: percent of DMSO vehicle control
PROPERTY_NAME: remaining activity at 10 µM

>  <STRUCTURE_NOTATION>
CC(C)(C)[C@H](NC(=O)/C=C/c1ccc(OP(=O)(O)O)cc1)C(=O)N1CCC[C@H]1C(=O)N(c1ccccc1)c1ccc(I)cc1

>  <RESULT>
102%

$$$$
>  <STRUCTURE_NOTATION>
C/C(=C\C(=O)N[C@H](C(=O)N1CCC[C@H]1C(=O)N(c1ccccc1)c1ccc(I)cc1)C(C)(C)C)c1ccc(OP(=O)(O)O)cc1

>  <RESULT>
42.4%

$$$$
>  <STRUCTURE_NOTATION>
O=C(CCl)Nc1cccc(CNC(=O)[C@H](Cc2ccc(OP(=O)(O)O)cc2)NC(=O)Cc2ccc(F)cc2)c1

>  <RESULT>
202%

$$$$
>  <STRUCTURE_NOTATION>
O=C(COc1ccc2cc(C(=O)Nc3ccccc3)ccc2c1)NCc1ccc(OP(=O)(O)O)c(OP(=O)(O)O)c1

>  <RESULT>
120%

$$$$

---

Biological target: SOCS7 (Homo sapiens)
Construct: made in house; host or cells: HEK293 (transient transfection), unpurified extract
Sequence (O14512 whole entry): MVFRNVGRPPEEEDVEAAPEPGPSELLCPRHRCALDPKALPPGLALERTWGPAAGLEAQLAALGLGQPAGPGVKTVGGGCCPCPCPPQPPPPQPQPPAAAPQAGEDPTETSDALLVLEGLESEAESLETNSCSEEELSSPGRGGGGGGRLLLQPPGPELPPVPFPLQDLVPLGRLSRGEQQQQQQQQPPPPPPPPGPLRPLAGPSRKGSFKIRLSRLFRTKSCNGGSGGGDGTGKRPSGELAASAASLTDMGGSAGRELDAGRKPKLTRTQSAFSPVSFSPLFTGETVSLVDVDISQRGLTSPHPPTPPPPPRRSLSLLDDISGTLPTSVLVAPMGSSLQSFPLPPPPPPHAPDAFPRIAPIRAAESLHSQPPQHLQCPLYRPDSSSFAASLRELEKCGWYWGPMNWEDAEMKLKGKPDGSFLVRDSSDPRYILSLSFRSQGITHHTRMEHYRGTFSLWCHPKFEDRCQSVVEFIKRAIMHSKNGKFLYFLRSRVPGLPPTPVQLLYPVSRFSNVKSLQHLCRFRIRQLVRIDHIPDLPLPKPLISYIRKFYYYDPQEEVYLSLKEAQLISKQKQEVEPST
Assay: biochemical
Type: binding
Settings: read-out: percent of DMSO vehicle control
Non-standard residues stand in square brackets, D forms with d. Residues, ends and D or L forms follow the SMILES beside them. *: point of attachment. pY = N[C@@H](Cc1ccc(OP(=O)(O)O)cc1)C(=O)O; Caffeoyl = O=C(/C=C/c1ccc(O)c(O)c1)*
PROPERTY_NAME: remaining activity at 10 µM (%)

>  <MOLECULE>
CC(=O)N[C@@H](Cc1ccc(CP(=O)(O)O)cc1)C(=O)NC1(C(=O)N[C@@H](CC(N)=O)C(=O)NCCCc2c(O)ccc3ccccc23)CCCCC1 [CGP78850]

>  <NUMERIC_READOUT>
126

$$$$
>  <MOLECULE>
CC[C@H](C)[C@H](NC(=O)[C@H](CCC(=O)O)NC(=O)[C@H](CCC(=O)O)NC(=O)[C@H](Cc1ccc(OP(=O)(O)O)cc1)NC(=O)/C=C/c1ccc(O)c(O)c1)C(=O)N[C@@H](CCC(=O)O)C(=O)O [Caffeic acid-pYEEIE] (Caffeoyl-[pY]EEIE-OH)

>  <NUMERIC_READOUT>
0.5

$$$$
>  <MOLECULE>
CC(=O)N1CC[C@H]2CC[C@@H](C(=O)N[C@@H](CCC(N)=O)C(=O)NC(c3ccccc3)c3ccccc3)N2C(=O)[C@@H](NC(=O)c2cc3cc(C(F)(F)P(=O)(O)O)ccc3[nH]2)C1 [SI-109]

>  <NUMERIC_READOUT>
124

$$$$
>  <MOLECULE>
NC(=O)CC[C@H](NC(=O)[C@@H]1CC[C@@H]2CCN(C(=O)CCCCCC#Cc3cccc4c3CN(C3CCC(=O)NC3=O)C4=O)C[C@H](NC(=O)c3cc4cc(C(F)(F)P(=O)(O)O)ccc4[nH]3)C(=O)N21)C(=O)NC(c1ccccc1)c1ccccc1 (stereo partly shown) [SD-36]

>  <NUMERIC_READOUT>
271

$$$$
